system: FYN; details: concentration: 1 μM, replicates: in singlicate; n = 1;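 note: KINOMEscan kinase panel screen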
Would you kindly list %Inh for each of these molecules?
API: value field is a number in %; no unit string.

Q: State, in one line, measured %Inh of `COc1ccc(CSc2nnc(-c3ccc4c(c3)CCO4)o2)cc1`
Ans: 0

Q: Identify measured %Inh corresponding to `Cc1ccc(NC(=O)Nc2ccc(Cl)cc2)cc1-c1ccc(C(=O)Nc2ccncc2)cc1`
Ans: 0

Q: Using the record for `Cc1c(Cn2c(C)c(C)n3c(=O)cc(N4CCOCC4)nc23)cccc1C(F)(F)F` , state its measured %Inh.
Ans: 2

Q: Using the record for COc1ccc(Nc2nccc(N3CCC(NC(=O)c4cc5ccccc5s4)C3)n2)cc1 (stereo not shown) , state its measured %Inh.
Ans: 41

Q: Specify reported %Inh for the molecule shown: `CCc1ccc(-c2ccc3c(c2)-c2n[nH]cc2S(=O)(=O)N3C)cc1`
Ans: 14

Q: Write down %Inh measured for item `O=C(Nc1n[nH]c2cc(-c3ccsc3)ccc12)C1CC1`
Ans: 4

Q: State its %Inh: `CN1c2ccc(-c3ccc(C(N)=O)cc3)cc2-c2[nH]ncc2S1(=O)=O`
Ans: 3

Q: Give %Inh for the following molecule: `Cl.Cl.Cl.N#Cc1ccc(CCNc2nccc(-c3cccc(CN4CCNCC4)c3)n2)cc1`
Ans: 38

Q: Tell me %Inh reported for `COc1ccc(-c2coc3ccc(-c4nnc(C)o4)cc23)cc1`
Ans: 2

Q: Give recorded %Inh. COC(=O)c1cccc(NC(=O)NC2CCN(c3ccnc(Nc4ccc(OC)cc4)n3)C2)c1 (stereo not shown)
Ans: 8

Q: Please report the measured %Inh for `Nc1nccc(-c2c(-c3ccc(F)cc3)ncn2C2CCN(Cc3ccccc3)CC2)n1`
Ans: 0

Q: Give %Inh for the following molecule: `CCn1c(-c2ccccc2)nc2cnccc21`
Ans: 14

Q: Give a short answer stating reported %Inh for `O=C1NC(=O)C(c2ccc(Cl)cc2)=C1Nc1ccc(O)cc1` .
Ans: 0

Q: Name the recorded %Inh of the molecule listed here: COc1ccc(Nc2nccc(N3CCC(NC(=O)C(C)c4ccc(Cl)cc4)C3)n2)cc1 (stereo not shown)
Ans: 15

Q: Provide only the value of recorded %Inh for `CSc1ccc(-c2nc3n(c2-c2ccncc2)CCC3)cc1`
Ans: 0

Q: Give me measured %Inh, please, for this molecule: `CNC(=O)c1ccc(C)c(-n2c(C)cc(OCc3ccc(F)cc3F)c(Br)c2=O)c1`
Ans: 0

Q: Give recorded %Inh. `O=C(Nc1n[nH]c2nc(-c3cccs3)c(Br)cc12)C1CCCC1`
Ans: 6

Q: Output %Inh of `Cc1ccc(NC(=O)Nc2ccccc2)cc1-c1ccc(C(=O)Nc2ccncc2)cc1`
Ans: 33

Q: Quickly give me recorded %Inh for `CC(C)c1ccc(O)cc1Nc1ccnc2ccc(C(F)(F)F)cc12`
Ans: 20

----------
tested on: SIK; conditions: concentration: 1 μM, replicates: in singlicate; n = 1
MEASURE: %Inh (%)
The reply should contain only the number, in %.

Q: Return reported %Inh for target or system SIK, item Cc1cnc(N)c(/C=C/c2cncc(C(=O)NCCc3ccc(Cl)cc3Cl)c2)c1.Cl [GSK190937] .
Ans: 0

Q: Using SIK as the test system, report measured %Inh of Cc1ccc(NC(=O)Nc2ccc(Cl)c(C(F)(F)F)c2)cc1-c1ccc(C(=O)Nc2ccncc2)cc1 [GSK1398470] .
Ans: 41

Q: Supply %Inh measured with SIK for COc1cccc(C2=C(Nc3cc(Cl)c(O)c(Cl)c3)C(=O)NC2=O)c1 [SB-390767] .
Ans: 0

Q: Provide SIK %Inh reading for Cc1nccc(-c2c(-c3ccc(F)cc3)ncn2CCCN2CCOCC2)n1.Cl [SB-282975] .
Ans: 27

Q: Fill: %Inh (SIK) for this molecule `COc1ccc(CSc2nnc(-c3ccc4c(c3)CCO4)o2)cc1`
Ans: 0

Q: Report %Inh from SIK testing of `CC(=O)c1c(C)c2cnc(Nc3ccc(N4CCNCC4)cn3)nc2n(C2CCCC2)c1=O`
Ans: 0

Q: For SIK, give the measured %Inh of the entry Nc1cccc(-c2ccc3c(N)n[nH]c3c2)n1 [GSK2192730]
Ans: 0

Q: Specify the recorded %Inh for Cc1ccccc1Cn1ccn2c(=O)cc(N3CCOCC3)nc12 [GSK2269905] , system: SIK.
Ans: 0

Q: Answer with %Inh of COc1ccc(Nc2nccc(-c3ccc(NC(=O)c4cc5cc(F)ccc5[nH]4)cc3)n2)cc1 [GSK1229496] measured for SIK.
Ans: 0

----------
Hi there, I'd appreciate the recorded %Inh for every entry that follows.
test system: PIP5K2C; construct: gene PIP4K2C; conditions: concentration: 1 μM, replicates: in singlicate; n = 1

Q: Answer with reported %Inh of `CNC(=O)c1ccc(C)c(-n2c(C)cc(OCc3ccc(F)cc3F)c(Br)c2=O)c1`
Ans: 0%

Q: Supply measured %Inh of `Cc1cnc(N)c(/C=C/c2cncc(C(=O)NCCc3ccc(Cl)cc3Cl)c2)c1.Cl` in your reply.
Ans: 47%

Q: Fill in %Inh for record `CC[C@@H]1CO[C@H](C(=O)Nc2ccccc2)CN1c1cc(-c2ccc3c(N)n[nH]c3c2)nc(NC)n1`
Ans: 3%

Q: In one line, give reported %Inh of the entry O=C(Nc1n[nH]c2nc(-c3ccco3)c(Br)cc12)C1CCN(Cc2ccccc2)C1.O=C(O)[C@H](O)[C@@H](O)C(=O)O (stereo not drawn) .
Ans: 0%

Q: Item `Cc1ccc(NC(=O)Nc2ccccc2)cc1-c1ccc(C(=O)Nc2ccncc2)cc1` : provide %Inh
Ans: 0%

Q: Tell me measured %Inh for `COc1ccc(CSc2nnc(-c3ccc4nccn4c3)o2)cc1C(F)(F)F` please.
Ans: 0%

Q: # return recorded %Inh for input `FC(F)(F)c1ccccc1-c1cc(-c2c[nH]nc2-c2ccccn2)ccn1`
Ans: 0%

Q: Consider the molecule COC(=O)C(Cc1ccccc1)NC(=O)NC1CCN(c2ccnc(Nc3ccc(F)cc3)n2)C1 (stereo not drawn) . State its measured %Inh.
Ans: 36%

Q: Specify reported %Inh for the molecule shown: `CC(C)c1cc(-c2ccc3c(N)n[nH]c3c2)nc(N)n1`
Ans: 2%

Q: Give the measured %Inh for `NS(=O)(=O)c1cccc(N/C=C2\C(=O)Nc3ccc(S(=O)(=O)Cc4c(Cl)cccc4Cl)cc32)c1`
Ans: 1%

Q: Answer with the recorded %Inh for the molecule listed here: COC(=O)c1cccc(NC(=O)NC2CCN(c3ccnc(Nc4ccc(OC)cc4)n3)C2)c1 (stereo not drawn)
Ans: 48%

Q: Fill in %Inh for record COC(=O)C(NC(=O)NC1CCN(c2ccnc(Nc3ccc(F)cc3)n2)C1)c1ccccc1 (stereo not drawn)
Ans: 29%

Q: Please list %Inh recorded for the molecule `CCn1c(-c2c(N)noc2C)nc2cnccc21`
Ans: 6%

Q: Read the entry `COc1ccc(Nc2nccc(NCCNC(=O)Nc3cc(C)ccc3C)n2)cc1` and write its reported %Inh.
Ans: 39%

Q: Supply recorded %Inh for `O=C(Nc1n[nH]c2nc(-c3cccs3)c(Br)cc12)C1CC1` here.
Ans: 0%

Q: Name the recorded %Inh of the item `O=C1NC(=O)C(c2ccc(Cl)cc2)=C1Nc1cccc(Cl)c1` in your answer.
Ans: 20%

Q: Answer with reported %Inh of `Cc1ccccc1-c1cc(-c2c[nH]nc2-c2ccccn2)ccn1`
Ans: 28%

Q: Could you please provide reported %Inh for COc1ccc(Nc2nccc(N3CCC(NC(=O)c4cc5ccccc5s4)C3)n2)cc1 (stereo not drawn) ? Thanks!
Ans: 47%

----------
tested on: CSNK2A2; conditions: concentration: 1 μM, replicates: in singlicate; n = 1
# strict inequality: %Inh < 1% yields TRUE, everything else yields FALSE

Q: Bench note: check whether `Cc1nccc(-c2c(-c3ccc(F)cc3)ncn2CCCN2CCOCC2)n1.Cl` shows %Inh below 1%
Ans: FALSE

Q: Here's an entry: `O=C(Nc1n[nH]c2cc(-c3ccsc3)ccc12)C1CC1` . Is its %Inh below 1%?
Ans: FALSE

Q: Here's an entry: `O=C1NC(=O)C(c2ccc(Cl)cc2)=C1Nc1ccc(O)cc1` . Is its %Inh below 1%?
Ans: TRUE

Q: Does `O=C1NC(=O)C(c2ccc(Cl)cc2)=C1Nc1cccc(Cl)c1` have %Inh strictly under 1%?
Ans: TRUE

Q: A record lists `FC(F)(F)c1ccccc1-c1cc(-c2c[nH]nc2-c2ccccn2)ccn1` . Is its %Inh below 1%?
Ans: FALSE

Q: Please check: %Inh for `COc1cc2ncnc(Nc3cccc(Br)c3)c2cc1OC.Cl` , strictly under 1% or not?
Ans: TRUE

Q: Consider `Cc1ccc(NC(=O)Nc2ccccc2)cc1-c1ccc(C(=O)Nc2ccncc2)cc1` . Does its %Inh lie strictly below 1%?
Ans: FALSE

Q: Does this compound meet the criterion %Inh < 1%? `COc1ccc(Nc2nccc(-c3ccc(NC(=O)c4cc5cc(F)ccc5[nH]4)cc3)n2)cc1`
Ans: TRUE

Q: Does `CNCc1ccc2nc(NC(=O)c3ccc(C(C)(C)C)cc3)cn2c1` have %Inh strictly under 1%?
Ans: FALSE

Q: Just wondering, is %Inh of `Cc1ccc(NC(=O)Nc2ccc(Cl)cc2)cc1-c1ccc(C(=O)Nc2ccncc2)cc1` below 1%?
Ans: TRUE

Q: Please state whether %Inh is below 1% for `Cc1cnc(N)c(/C=C/c2cncc(C(=O)NCCc3ccc(Cl)cc3Cl)c2)c1.Cl`
Ans: TRUE

Q: Does the reported %Inh of `COc1ccc(Nc2nccc(NCCNC(=O)Nc3cc(C)ccc3C)n2)cc1` stay below 1%?
Ans: TRUE

Q: Hello, is %Inh of the following compound strictly smaller than 1%? `COc1cccc(NC(=O)Nc2ccc(C)c(-c3ccc(C(=O)Nc4ccncc4)cc3)c2)c1`
Ans: FALSE
